Exercise: for every item that follows, state its recorded pIC50.
# Measurement target: GST-PLK3 (Homo sapiens)
# Construct: purchased CarnaBio
# Protocol summary: PLK TR-FRET peptide assay, PLK3
# Assay type: biochemical
# Measurement context: PLK TR-FRET peptide assay, GST-PLK3; read-out: Plk3 IC50
pIC50: −log10 of the molar value.

- Compound: "CC[C@@H]1C(=O)N(C)c2cnc(-c3scnc3-c3ccc(F)cc3)nc2N1C(C)C"
  Observed value: "5.00 to 6.00"
- Compound: "CC[C@H]1C(=O)N(C)c2cnc(-n3ccnc3-c3ccc(F)cc3)nc2N1c1ccn(C)n1"
  Observed value: "< 4.30"
- Compound: "CCC1C(=O)N(C)c2cnc(-n3ccnc3-c3ccc(F)cc3)nc2N1c1ccccc1 (centres unmarked)"
  Observed value: "5.00 to 6.00"
- Compound: "CC[C@@H]1C(=O)N(C)c2cnc(-n3ccnc3-c3ccncc3)nc2N1C1CC1"
  Observed value: "< 4.30"
- Compound: "CC[C@@H]1C(=O)N(C)c2cnc(-n3ccc(C(N)=O)n3)nc2N1C1CCCC1"
  Observed value: "5.00 to 6.00"

Field: pIC50. Fill in for each record below.
1. CC[C@@H]1C(=O)N(C)c2cnc(-n3ccc(=N)cc3)nc2N1C1CCCC1
2. CC[C@@H]1C(=O)N(C)c2cnc(-c3cn[nH]c3-c3nccs3)nc2N1C1CCOCC1
3. CCC1C(=O)N(C)c2cnc(-n3ccnc3)nc2N1c1cn[nH]c1 (centres unmarked)

< 4.30
> 6.00
< 4.30

###

# Measurement target: GST-PLK2 (Homo sapiens)
# Construct: purchased CarnaBio
# Sequence (Q9NYY3 whole entry): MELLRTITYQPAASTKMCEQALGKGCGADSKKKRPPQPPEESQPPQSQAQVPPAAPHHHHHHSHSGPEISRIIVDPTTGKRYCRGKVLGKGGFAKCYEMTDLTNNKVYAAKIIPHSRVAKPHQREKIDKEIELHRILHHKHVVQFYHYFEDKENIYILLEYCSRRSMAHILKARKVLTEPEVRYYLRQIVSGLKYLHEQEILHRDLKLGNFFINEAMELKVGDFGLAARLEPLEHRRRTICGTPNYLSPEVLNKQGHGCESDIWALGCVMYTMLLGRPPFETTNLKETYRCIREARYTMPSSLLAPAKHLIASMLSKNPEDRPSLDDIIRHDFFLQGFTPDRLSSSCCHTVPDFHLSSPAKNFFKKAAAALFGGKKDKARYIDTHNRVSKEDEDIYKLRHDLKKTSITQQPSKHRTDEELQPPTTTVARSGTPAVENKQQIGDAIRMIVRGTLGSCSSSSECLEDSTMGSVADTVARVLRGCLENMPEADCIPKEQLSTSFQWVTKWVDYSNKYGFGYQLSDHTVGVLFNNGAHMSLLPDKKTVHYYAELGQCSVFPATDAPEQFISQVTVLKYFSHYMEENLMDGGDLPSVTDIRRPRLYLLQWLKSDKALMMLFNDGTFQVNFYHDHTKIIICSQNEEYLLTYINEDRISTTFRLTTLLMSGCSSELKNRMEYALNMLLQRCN
# Protocol summary: PLK TR-FRET peptide assay, PLK2
# Assay type: biochemical
# Measurement context: PLK TR-FRET peptide assay, GST-PLK2; read-out: Plk2 IC50
Quantity measured: IC50

Example results:
- Compound: "CC[C@]12COCCN1c1nc(-c3snnc3-c3ccccc3)ncc1N(C)C2=O"
  IC50: "> 50000 nM"
- Compound: "CC[C@@H]1C(=O)N(C)c2cnc(-n3cnc(C(=O)NC)c3)nc2N1C1CCCC1"
  IC50: "< 1000 nM"
- Compound: "CC[C@@H]1C(=O)N(C)c2cnc(-n3ccc(C(=O)NC)n3)nc2N1C1CCCC1"
  IC50: "< 1000 nM"
- Compound: "CCC12COCCN1c1nc(-c3cn[nH]c3-c3ccc(F)cc3F)ncc1N(C)C2=O (racemic)"
  IC50: "< 1000 nM"
- Compound: "CC[C@@H]1C(=O)N(C)c2cnc(-c3cn[nH]c3)nc2N1C1CCCC1"
  IC50: "< 1000 nM"

Items follow; give IC50 for each.
1. CC[C@@H]1C(=O)N(C)c2cnc(-n3ccnc3-c3ccc(F)cc3)nc2N1C1COC1
2. CC[C@@]12COCCN1c1nc(-c3cn[nH]c3-c3nccs3)ncc1N(C)C2=O
3. CC[C@@]12COCCN1c1nc(-c3ccncc3-c3ccccc3)ncc1N(C)C2=O [Example 394]

["1000 to 10000 nM", "< 1000 nM", "< 1000 nM"]

For each of the compounds below, state IC50.
1. CC[C@@H]1C(=O)N(C)c2cnc(-n3cnc(-c4cscn4)c3)nc2N1C1CCCC1
2. CC[C@]12COCCN1c1nc(-n3ccnc3-c3ccccc3)ncc1N(C)C2=O (single isomer, unassigned)
3. CC[C@@H]1C(=O)N(C)c2cnc(-n3ccc(C(=O)N(C)C)n3)nc2N1C1CCCC1
4. CC[C@@H]1C(=O)N(C)c2cnc(-n3ccnc3-c3ccncc3)nc2N1C1CCC1
5. CCC1C(=O)N(C)c2cnc(-n3ccnc3-c3ccccc3)nc2N1N1CCCC1 (stereo not shown)
6. CC[C@@]12CCCN1c1nc(-n3ccnc3-c3cccc(Br)c3)ncc1N(C)C2=O
7. CC[C@@H]1C(=O)N(C)c2cnc(-n3ccc(C(=O)O)n3)nc2N1C1CCCC1
8. CC[C@@H]1C(=O)N(C)c2cnc(-n3ccc(C(N)=O)n3)nc2N1C1CCCC1

1: < 1000 nM; 2: 10000 to 50000 nM; 3: 1000 to 10000 nM; 4: < 1000 nM; 5: < 1000 nM; 6: < 1000 nM; 7: < 1000 nM; 8: < 1000 nM

###

# Measurement target: GST-PLK3 (Homo sapiens, UniProt Q9H4B4)
# Construct: purchased CarnaBio
# Sequence (Q9H4B4 whole entry): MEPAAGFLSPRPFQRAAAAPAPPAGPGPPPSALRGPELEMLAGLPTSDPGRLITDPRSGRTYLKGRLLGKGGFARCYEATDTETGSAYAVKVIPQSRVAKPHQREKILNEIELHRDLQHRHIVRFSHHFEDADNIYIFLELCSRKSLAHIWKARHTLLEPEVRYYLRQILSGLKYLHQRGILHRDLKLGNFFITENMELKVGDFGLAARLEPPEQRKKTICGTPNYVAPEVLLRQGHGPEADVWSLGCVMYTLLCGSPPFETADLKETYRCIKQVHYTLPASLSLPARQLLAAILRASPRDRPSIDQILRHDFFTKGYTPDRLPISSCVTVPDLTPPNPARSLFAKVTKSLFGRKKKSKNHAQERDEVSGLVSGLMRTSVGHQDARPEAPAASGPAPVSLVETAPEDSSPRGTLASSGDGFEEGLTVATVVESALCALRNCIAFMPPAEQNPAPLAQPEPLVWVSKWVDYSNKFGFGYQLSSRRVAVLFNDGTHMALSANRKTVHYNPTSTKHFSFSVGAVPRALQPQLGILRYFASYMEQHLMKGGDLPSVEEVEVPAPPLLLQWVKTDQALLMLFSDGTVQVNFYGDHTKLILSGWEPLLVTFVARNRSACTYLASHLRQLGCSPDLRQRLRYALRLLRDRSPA
# Protocol summary: PLK TR-FRET peptide assay, PLK3
# Type: biochemical
# Measurement context: PLK TR-FRET peptide assay, GST-PLK3; read-out: Plk3 IC50
Quantity measured: IC50

- Molecule: "CN1C(=O)C23C=CC(CC2)N3c2nc(-n3ccnc3-c3ccccc3)ncc21 (centres unmarked)"
  IC50: "> 50 µM"
- Molecule: "CC[C@@H]1C(=O)N(C)c2cnc(-n3cc(C(=O)N4CCOCC4)cn3)nc2N1C1CCCC1"
  IC50: "10 to 50 µM"
- Molecule: "CC[C@@H]1C(=O)N(C)c2cnc(-n3ccnc3)nc2N1C(C)C"
  IC50: "> 50 µM"
- Molecule: "CC[C@@H]1C(=O)N(C)c2cnc(-n3ccnc3-c3ccc(F)cc3)nc2N1C1COC1"
  IC50: "> 50 µM"

// each listed molecule needs a value for IC50
1. CC[C@@H]1C(=O)N(C)c2cnc(-n3ccc4ccccc43)nc2N1C1CCCC1
2. CC[C@@H]1C(=O)N(C)c2cnc(-n3ncnc3-c3ccn[nH]3)nc2N1C(C)C

1: > 50 µM; 2: 1 to 10 µM

Dear reader, for each entry below, please note its IC50.
1. CC[C@@]12COCCN1c1nc(-c3cn[nH]c3-c3nccs3)ncc1N(C)C2=O
2. CC[C@@H]1C(=O)N(C)c2cnc(-n3cc(C(=O)O)cn3)nc2N1C1CCCC1

["10 to 50 µM", "1 to 10 µM"]

###

# Measurement target: GST-PLK2 (Homo sapiens)
# Construct: purchased CarnaBio
# Protocol summary: PLK TR-FRET peptide assay, PLK2
# Type: biochemical
# Measurement context: PLK TR-FRET peptide assay, GST-PLK2; read-out: Plk2 IC50
pIC50: −log10 of the molar value.
Quantity measured: pIC50

Sample answers from the record:
- Molecule: "CC[C@@H]1C(=O)N(C)c2cnc(-n3ccnc3-c3ncccn3)nc2N1C(C)C"
  pIC50: "> 6.00"
- Molecule: "CC[C@]12COCCN1c1nc(-c3snnc3-c3ccc(F)cc3F)ncc1N(C)C2=O"
  pIC50: "< 4.30"

Dear colleague, could you please provide pIC50 for the molecules listed below?
1. CC[C@@H]1C(=O)N(C)c2cnc(-c3cnoc3-c3ccccc3)nc2N1C1CCCC1
2. CC[C@@H]1C(=O)N(C)c2cnc(-c3cn[nH]c3-c3ccccn3)nc2N1C1CCCC1
3. CC[C@@H]1C(=O)N(C)c2cnc(-n3cnc(C)c3)nc2N1C1CCCC1
4. CCC1C(=O)N(C)c2cnc(-n3ccnc3-c3ccccc3)nc2N1N (centres unmarked)
5. CC[C@@]12CN(C)CCN1c1nc(-n3ccnc3-c3ccccc3)ncc1N(C)C2=O
6. CN1C(=O)C23C=CC(CC2)N3c2nc(-n3ccnc3-c3ccccc3)ncc21 (centres unmarked)
7. CC[C@@H]1C(=O)N(C)c2cnc(-n3ccnc3)nc2N1C1CCOC1 (single isomer, unassigned)

1: > 6.00; 2: > 6.00; 3: > 6.00; 4: > 6.00; 5: > 6.00; 6: 5.00 to 6.00; 7: > 6.00

###

In what follows, each item is paired with its IC50 for GST-PLK1 (Homo sapiens, UniProt P53350).

Here's what some known entries look like.
- Compound: "CC[C@@H]1C(=O)N(C)c2cnc(-c3ccn(C)c(=O)c3)nc2N1C1CCCC1 [Example 19]"
  IC50: "< 1 µM"
- Compound: "CC[C@@]12COCCN1c1nc(-c3[nH]nnc3-c3ccccc3)ncc1N(C)C2=O [Example 373]"
  IC50: "10 to 50 µM"
- Compound: "CC[C@@H]1C(=O)N(C)c2cnc(-n3ccnc3-c3ccc(F)cc3)nc2N1C1COC1 [Example 328]"
  IC50: "> 50 µM"
- Compound: "CC[C@@H]1C(=O)N(C)c2cnc(-c3ccncc3-c3ccccc3)nc2N1C(C)C [Example 110]"
  IC50: "< 1 µM"
- Compound: "CC[C@@H]1C(=O)N(C)c2cnc(-n3ccc(C(=O)N(C)C)n3)nc2N1C1CCCC1 [Example 61]"
  IC50: "1 to 10 µM"

For every listed record, write down its IC50.
1. CC[C@]12COCCN1c1nc(-c3cn[nH]c3-c3ccc(F)cc3F)ncc1N(C)C2=O [Example 412]
2. CN1C(=O)C23CCC(CC2)N3c2nc(-n3ccnc3-c3ccccc3)ncc21 [Example 308]

> 50 µM
10 to 50 µM

// assay GST-PLK1 (Homo sapiens, UniProt P53350), entry CC[C@]12COCCN1c1nc(-c3cccnc3-c3ccccc3)ncc1N(C)C2=O [Example 404] , IC50 value = > 50 µM
